# system_name: T1, human MAdCAM expressed on cells (human, UniProt Q13477 19-382)
# T1 construct: whole, on cells; also called MADCAM1
# T1 sequence (looked up): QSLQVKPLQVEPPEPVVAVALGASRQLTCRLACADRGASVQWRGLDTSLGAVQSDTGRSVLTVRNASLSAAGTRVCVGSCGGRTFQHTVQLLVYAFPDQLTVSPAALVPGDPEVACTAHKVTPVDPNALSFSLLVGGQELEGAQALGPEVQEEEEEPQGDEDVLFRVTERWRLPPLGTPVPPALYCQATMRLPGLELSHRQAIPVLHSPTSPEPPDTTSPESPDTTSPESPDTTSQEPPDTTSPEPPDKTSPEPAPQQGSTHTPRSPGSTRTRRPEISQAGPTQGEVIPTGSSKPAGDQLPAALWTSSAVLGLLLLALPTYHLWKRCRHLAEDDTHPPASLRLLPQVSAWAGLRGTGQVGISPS
# measurement_description: cell binding
measurement_kind: binding result

- MAdCAM antibody Clone ID 30 of Table 7 (IgG) (antibody, V domains shown, IgG format) VH: EVQLLESGGGLVQPGGSLRLSCAASGFTFSSYAMHWVRQAPGKGLEWVSGISGSGGSAYYADSVKGRFTISRDNSKNTLYLQMNSLRAEDTAVYYCATSQAPVDYYYYGMDVWGQGTTVTVSS VL: DIQMTQSPSSLSASVGDRVTITCRASQSISSWLAWYQQKPGKAPKLLIYAASNLQRGVPSRFSGSGSGTDFTLTISSLQPEDFATYYCQQSYSIPITFGQGTKVEIK: binds
- MAdCAM antibody Clone ID 34 of Table 7 (IgG) (antibody, V domains shown, IgG format) VH: QVQLVQSGAEVKKPGASVKVSCKASGYTFTGYYIHWVRQAPGQGLEWMGWMNPNSGNTGYAQKFQGRVTMTRDTSTSTVYMELSSLRSEDTAVYYCARDPGFLGYCSGGSCYDGWFDPWGQGTLVTVSS VL: DIQMTQSPSSLSASVGDRVTITCRASQSISSYLHWYQQKPGKAPKLLIYAASSLQSGVPSRFSGSGSGTDFTLTISSLQPEDFATYYCQQSYTAPYTFGQGTKLEIK: binds
- MAdCAM antibody Clone ID 75 of Table 7 (IgG) (antibody, V domains shown, IgG format) VH: EVQLLESGGGLVQPGGSLRLSCAASGFTFSDFWMHWVRQAPGKGLEWISYISGDSGYTNYADSVKGRFTISRDNSKNTLYLQMNSLRAEDTAVYYCARDRPYYYYMDVWGKGTTVTVSS VL: DIQMTQSPSSLSASVGDRVTITCRASQSVSRSLAWYQQKPGKAPKLLIYAASSLQSGVPSRFSGSGSGTDFTLTISSLQPEDFATYYCQQYKSYPVTFGQGTKVEIK: binds
